- Test Description: Volume of distribution in Wistar rat at 5 mg/kg, iv
- Assay type: ADME, organism-based
- Parameters: dose 5 mg/kg, route intravenous
- Conditions: in vivo
Endpoint Name: Vd (L/kg)
Give bare numbers, in L/kg.

Note Vd for the compound shown: COCCN(C)c1ccc(NC(=O)c2nc(-c3ccccc3)oc2C(F)(F)F)cn1
1.6

====

- Test Description: Cmax in diet induced obese Sprague-Dawley rat model at 25 mg/kg, po qd for 3 weeks measured on day 21
- Type: ADME, organism-based
- Parameters: dose 25 mg/kg, route oral
- Conditions: in vivo
Endpoint Name: Cmax

Identify measured Cmax corresponding to COCCN(C)c1ccc(NC(=O)c2nc(-c3ccccc3)oc2C(F)(F)F)cn1
7.8 µM

====

- Test Description: Oral bioavailability in Wistar rat at 50 mg/kg
- Type: ADME, organism-based
- Conditions: in vivo
Endpoint Name: bioavailability (%)
Answers are plain numbers, in %.

Report measured bioavailability; entry is COCCN(C)c1ccc(NC(=O)c2nc(-c3ccccc3)oc2C(F)(F)F)cn1
77

====

- Test Description: Solubility of the compound in simulated gastric fluid
- Assay type: physicochemical
Endpoint Name: solubility (µg/mL)
Numbers only, in µg/mL.

Hello, please tell me recorded solubility for this one: COCCN(C)c1ccc(NC(=O)c2nc(-c3ccccc3)oc2C(F)(F)F)cn1
770

====

- Target Of Assay: Diacylglycerol O-acyltransferase 1 (Rattus norvegicus, UniProt Q9ERM3)
- Sequence (Q9ERM3 whole entry): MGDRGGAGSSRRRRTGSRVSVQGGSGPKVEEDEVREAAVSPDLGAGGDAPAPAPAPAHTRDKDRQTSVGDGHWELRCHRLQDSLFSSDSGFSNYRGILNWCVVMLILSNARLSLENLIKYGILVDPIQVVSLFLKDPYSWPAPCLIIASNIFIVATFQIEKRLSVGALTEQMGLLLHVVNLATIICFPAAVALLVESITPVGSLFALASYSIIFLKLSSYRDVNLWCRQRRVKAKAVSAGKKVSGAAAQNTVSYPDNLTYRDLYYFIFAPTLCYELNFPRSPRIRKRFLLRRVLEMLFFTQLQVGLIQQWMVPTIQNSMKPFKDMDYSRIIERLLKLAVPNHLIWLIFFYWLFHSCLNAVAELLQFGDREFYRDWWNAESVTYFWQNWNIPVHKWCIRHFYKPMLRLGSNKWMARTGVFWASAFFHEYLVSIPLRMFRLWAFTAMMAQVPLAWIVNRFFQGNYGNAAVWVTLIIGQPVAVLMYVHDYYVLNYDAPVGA
- Test Description: Inhibition of rat DGAT1
Endpoint Name: IC50 (nM)
Numbers only, in nM.

Read the entry COCCN(C)c1ccc(NC(=O)c2nc(-c3ccccc3)oc2C(F)(F)F)cn1 and write its reported IC50.
120

====

- Test Description: Cmax in diet induced obese Sprague-Dawley rat model at 5 mg/kg, po qd for 3 weeks measured on day 21
- Assay type: ADME, organism-based
- Set-up: dose 5 mg/kg, route oral
- Conditions: in vivo
Endpoint Name: Cmax (µM)
One number for each entry, in µM.

Please give the documented Cmax of COCCN(C)c1ccc(NC(=O)c2nc(-c3ccccc3)oc2C(F)(F)F)cn1
2.6

====

- Test Description: Tmax in Wistar rat at 50 mg/kg, po
- Type: ADME, organism-based
- Design: dose 50 mg/kg, route oral
- Conditions: in vivo
Endpoint Name: Tmax (h)
One number for each entry, in h.

Please indicate Tmax recorded for COCCN(C)c1ccc(NC(=O)c2nc(-c3ccccc3)oc2C(F)(F)F)cn1
1
